# Subject Of Test: Galanin receptor type 2 (Rattus norvegicus, UniProt O08726)
# Sequence (O08726 whole entry): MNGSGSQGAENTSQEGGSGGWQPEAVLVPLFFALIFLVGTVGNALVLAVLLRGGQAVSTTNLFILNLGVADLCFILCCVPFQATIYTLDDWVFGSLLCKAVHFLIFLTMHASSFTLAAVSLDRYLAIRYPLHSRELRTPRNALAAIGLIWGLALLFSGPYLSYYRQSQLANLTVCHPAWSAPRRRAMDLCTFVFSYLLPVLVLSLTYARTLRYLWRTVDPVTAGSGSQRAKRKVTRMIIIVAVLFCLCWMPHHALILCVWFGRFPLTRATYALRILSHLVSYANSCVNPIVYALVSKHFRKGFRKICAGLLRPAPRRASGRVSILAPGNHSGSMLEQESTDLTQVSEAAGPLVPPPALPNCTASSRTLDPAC
Attribute Measured: Ki (nM)
Dear colleague, please return just the value in nM, with no unit written.

Fill in: Galanin receptor type 2 (Rattus norvegicus, UniProt O08726) Ki for H-GWTLNSAGYLLGPPPALALA-NH2 [M40] = 1.9

Data provenance is BindingDB's records for doi:10.1016/s0014-5793(97)00196-8.
